The measurements presented in this section are drawn from ChEMBL document CHEMBL3045942.

Tested on: Tobacco mosaic virus
assay-overview: In vivo antiviral activity against Tobacco mosaic virus (TMV) inoculated right side of Nicotiana tabacum L. leaves assessed as protection effect at 100 ug/mL preincubated 12 hr before viral challenge measured after 3 to 4 days
Format: functional
attribute-measured: Activity (%)
Reply with just the number (in %).

Determine reported Activity for COc1ccc2c3c(c4cc(OC)c(OC)cc4c2c1)CN1CCC[C@H]1C3 ; test system: Tobacco mosaic virus.
51.3

----------
Readings of Activity for the listed molecules
Test system: Tobacco mosaic virus
assay-overview: In vivo antiviral activity against Tobacco mosaic virus (TMV) inoculated right side of Nicotiana tabacum L. leaves assessed as protection effect at 100 ug/mL preincubated 12 hr before viral challenge measured after 3 to 4 days
Format: functional
Reply with just the number (in %).

* NC(=O)c1ncn([C@@H]2O[C@H](CO)[C@@H](O)[C@H]2O)n1 | 7.5
* COc1cc2cc(CN3CCC[C@H]3C)c3cc(OC)c(OC)cc3c2cc1OC | 13.1
* COc1ccc2c3c(c4cc(OC)c(OC)cc4c2c1)CN1CCC[C@@H]1[C@@H]3O | 30.2
* COc1ccc2c3c(c4cc(OC)c(OC)cc4c2c1)[C@@H](O)[C@H]1CCCN1C3 | 7.3
* COc1cc2c3c(c4cc(OC)c(OC)cc4c2cc1OC)NC[C@@H]1CCCN1C3 | 28.5

Field: next molecule
Name the recorded Activity of the item COc1cc2c3c(c4cc(OC)c(OC)cc4c2cc1OC)[C@H](O)[C@@H]1CCCN1C3 in your answer.
20

----------
Test system: Tobacco mosaic virus
assay-overview: In vivo antiviral activity against Tobacco mosaic virus (TMV) inoculated left side of Nicotiana tabacum L. leaves assessed as inactivation effect at 500 ug/mL co-incubated with virus measured after 3 to 4 days
Format: functional
attribute-measured: Activity (%)
Reply with just the number (in %).

Determine reported Activity for COc1ccc2c3c(c4cc(OC)c(OC)cc4c2c1)[C@H](O)[C@@H]1CCCN1C3 ; test system: Tobacco mosaic virus.
24.8

Determine reported Activity for COc1cc2c3c(c4cc(OC)c(OC)cc4c2cc1OC)CN1CCC[C@@H]1C3 [TYLOPHORINE] ; test system: Tobacco mosaic virus.
39

Determine reported Activity for COc1ccc2c3c(c4cc(OC)c(OC)cc4c2c1)CN1CCC[C@H]1C3 ; test system: Tobacco mosaic virus.
59.8

Determine reported Activity for NC(=O)c1ncn([C@@H]2O[C@H](CO)[C@@H](O)[C@H]2O)n1 [RIBAVIRIN] ; test system: Tobacco mosaic virus.
33.8

Determine reported Activity for COc1cc2cc(C(=O)N3CCC[C@H]3C)c3cc(OC)c(OC)cc3c2cc1OC ; test system: Tobacco mosaic virus.
31.3

----------
Test system: Tobacco mosaic virus
assay-overview: In vivo antiviral activity against Tobacco mosaic virus (TMV) inoculated left side of Nicotiana tabacum L. leaves assessed as inactivation effect at 100 ug/mL co-incubated with virus measured after 3 to 4 days
Format: functional
# label = t if Activity < 10% else f

* COc1cc2c3c(c4cc(OC)c(OC)cc4c2cc1OC)NC[C@H]1CCCN1C3 | f

Given COc1cc2c3c(c4cc(OC)c(OC)cc4c2cc1OC)CN1CCC[C@H]1C3 [(S)-TYLOPHORINE] , is recorded Activity strictly lower than 10%?
f

Given CNCC(=O)N[C@@H](CO)C(=O)N[C@H]1[C@H](O)[C@@H](O)[C@H](n2ccc(N)nc2=O)O[C@@H]1C(N)=O [NINGNANMYCIN] , is recorded Activity strictly lower than 10%?
f

Given COc1cc2c3c(c4cc(OC)c(OC)cc4c2cc1OC)NC[C@@H]1CCCN1C3 , is recorded Activity strictly lower than 10%?
f

Given COc1ccc2c3c(c4cc(OC)c(OC)cc4c2c1)CN1CCC[C@H]1[C@H]3O , is recorded Activity strictly lower than 10%?
t
